- Test system: LOC_OS01G52050-cb004;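 note: purified Escherichia coli-expressed rice kinase domain construct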
- Sequence (as listed by the source): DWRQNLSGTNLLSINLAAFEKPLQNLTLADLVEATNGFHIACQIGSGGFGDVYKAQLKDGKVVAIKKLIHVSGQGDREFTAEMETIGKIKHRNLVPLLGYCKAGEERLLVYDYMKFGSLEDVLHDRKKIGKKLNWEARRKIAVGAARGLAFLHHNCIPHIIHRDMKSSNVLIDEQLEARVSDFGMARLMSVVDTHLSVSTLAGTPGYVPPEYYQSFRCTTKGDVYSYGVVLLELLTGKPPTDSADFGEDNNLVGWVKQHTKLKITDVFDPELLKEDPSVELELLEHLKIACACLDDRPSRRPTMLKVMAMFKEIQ
- methodNotes: thermal shift delta Tm vs DMSO control; higher = stronger stabilization (binding)
- conditionParameters: 12.5 µM; protein concentration 2 µM
compounds and their reported thermal shift delta Tm
The answer is to be given in °C; state only the numeric part.

- Cc1cnc(Nc2ccc(N3CCN(C)CC3)cc2)nc1Nc1cccc(S(=O)(=O)NC(C)(C)C)c1: 3.19
- Cc1ccc(NC(=O)c2cccc(N(C)C)c2)cc1NC(=O)c1ccc(O)cc1: 0.36
- COc1cc2nccc(Oc3ccc(NC(=O)C4(C(=O)Nc5ccc(F)cc5)CC4)cc3)c2cc1OC: 2.44
- O=C(NC[C@H](O)CO)c1ccncc1Nc1ccc(I)cc1F: 0.02

// returns reported thermal shift delta Tm for input OCCn1cc(-c2ccc3c(c2)CC/C3=N\O)c(-c2ccncc2)n1
-0.04

// returns reported thermal shift delta Tm for input CO[C@H]1C[C@@H]2CC[C@@H](C)[C@@](O)(O2)C(=O)C(=O)N2CCCC[C@H]2C(=O)O[C@H]([C@H](C)C[C@@H]2CC[C@@H](OP(C)(C)=O)[C@H](OC)C2)CC(=O)[C@H](C)/C=C(\C)[C@@H](O)[C@@H](OC)C(=O)[C@H](C)C[C@H](C)/C=C/C=C/C=C/1C [Ridaforolimus (Deforolimus, MK-8669)]
0.11

// returns reported thermal shift delta Tm for input CC1(C)OC(=O)C=C[C@]2(C)[C@H]3CC[C@@]4(C)[C@H](c5ccoc5)OC(=O)[C@H]5O[C@]54[C@]3(C)C(=O)C[C@@H]12 [Obacunone]
3

// returns reported thermal shift delta Tm for input COC(=O)[C@]12CCC(C)(C)C[C@H]1[C@H]1C(=O)C=C3[C@@]4(C)C=C(C#N)C(=O)C(C)(C)[C@@H]4CC[C@@]3(C)[C@]1(C)CC2 [Bardoxolone Methyl]
-10.5

// returns reported thermal shift delta Tm for input CC(C)NC[C@@H](C(=O)N1CCN(c2ncnc3c2[C@H](C)C[C@H]3O)CC1)c1ccc(Cl)cc1 [Ipatasertib (GDC-0068)]
0.26

// returns reported thermal shift delta Tm for input CCn1c(C(=O)N(C2CC2)C2CC2)cc2c3c(ncn3C)c(Nc3cc(C)n(C)n3)nc21
0.97

// returns reported thermal shift delta Tm for input CC1=C(C(=O)Nc2cc3cn[nH]c3cc2F)C(c2ccc(C(F)(F)F)cc2)CC(=O)N1 (centres undefined)
0

src = the supplement of paper PMC9694430
